tested on: HEK293FT dCK*-only; experiment: relative growth in counter assay (no AraC = 100%, AraC + DMSO = 0%); higher = more growth rescue independent of IKZF1; conditions: compound concentration: 5 uM; AraC concentration: 0.3 uM; overnight pretreatment + 4 days AraC
# relative growth in counter assay values compiled below

| COMPOUND | relative growth in counter assay / % |
| --- | --- |
| CC(C)/N=c1/cc2n(-c3ccc(Cl)cc3)c3ccccc3nc-2cc1Nc1ccc(Cl)cc1 [Clofazimine] | 3.02 |
| O=C(O)c1cc([N+](=O)[O-])ccc1NCCCc1ccccc1 | -2.81 |
| O=C1CN(/N=C/c2ccc(-c3ccc([N+](=O)[O-])cc3)o2)C(=O)N1 [dantrolene] | -3.99 |
| COc1ccc(/C=C/C(=O)/C=C(O)/C=C/c2ccc(OC)c(OC)c2)cc1OC [Dimethylcurcumin, ASC-J9] | -25.6 |
| Fc1ccc(CNc2ncnc3ccc(F)cc23)cc1 [spautin-1] | -2.11 |
| CN(C)c1ccc(C(=C2C=CC(=[N+](C)C)C=C2)c2ccc(N(C)C)cc2)cc1 | -35.1 |
| C/C=C(/C(=C/C)c1ccc(O)cc1)c1ccc(O)cc1 [dienestrol] | -2.14 |
| Clc1cccc(Cl)c1CSc1nnc(-c2cnccn2)s1 [yoda-1] | -3.89 |
| CC1=C(/C=C/C(C)=C/C=C/C(C)=C/C=C/C=C(C)/C=C/C=C(C)/C=C/C2=C(C)CCCC2(C)C)C(C)(C)CCC1 | -13.6 |

* * *

# relative growth recovery values compiled below
tested on: HEK293FT dCK*-IKZF1; experiment: relative growth recovery (pomalidomide 10 uM = 100%, DMSO = 0%); higher = more growth rescue (IKZF1 fusion degradation); conditions: compound concentration: 5 uM; AraC concentration: 0.3 uM; overnight pretreatment + 4 days AraC

| COMPOUND | TARGET DESC | relative growth recovery / % |
| --- | --- | --- |
| Nc1nc2c(ccc3ccccc32)s1 | HEK293FT dCK*-IKZF1 | 0.375 |
| CO[C@@H]1[C@@H](OC2O[C@H](C)[C@@H](O[C@H]3C[C@@](C)(O)[C@@H](O)[C@H](C)O3)[C@H](N(C)C)[C@H]2O)[C@@H](CC=O)C[C@@H](C)[C@@H](O[C@H]2CC[C@H](N(C)C)[C@@H](C)O2)/C=C/C=C/C[C@@H](C)OC(=O)C[C@H]1O (some centres not stated) | HEK293FT dCK*-IKZF1 | 2.43 |
| O=C1Nc2c(ccc(Cl)c2Cl)C1=NO | HEK293FT dCK*-IKZF1 | -2.38 |
| COc1cccc2c1C(=O)c1c(O)c3c(c(O)c1C2=O)C[C@@](O)(C(=O)CO)C[C@@H]3O[C@H]1C[C@H](N)[C@H](O[C@@H]2CCCCO2)[C@H](C)O1 | HEK293FT dCK*-IKZF1 | -13.1 |
| NC(=O)N/N=C/c1ccc([N+](=O)[O-])o1 | HEK293FT dCK*-IKZF1 | -4.82 |
| O=S(=O)(O)CCCS(=O)(=O)O | HEK293FT dCK*-IKZF1 | -1.31 |
| C/C(=C\c1csc(C)n1)[C@@H]1C[C@@H]2O[C@]2(C)CCC[C@H](C)[C@H](O)[C@@H](C)C(=O)C(C)(C)[C@@H](O)CC(=O)N1 [Ixabepilone] | HEK293FT dCK*-IKZF1 | -10.8 |

* * *

# relative growth in counter assay values compiled below
test system: HEK293FT dCK*-only; assay: relative growth in counter assay (no AraC = 100%, AraC + DMSO = 0%); higher = more growth rescue independent of IKZF1; details: compound concentration: 5 uM; AraC concentration: 0.3 uM; overnight pretreatment + 4 days AraC
PROPERTY MEASURED: relative growth in counter assay

| MOLECULE | RESULT |
| --- | --- |
| Cc1ccc(S(=O)(=O)NC(=O)NN2CC3CCCC3C2)cc1 (centres undefined) | 3.82% |
| Cc1c(-c2ccccc2F)[nH]c(N)c1C#N | 0.99% |
| O=C(NCC1CCCCN1)c1cc(OCC(F)(F)F)ccc1OCC(F)(F)F (centres undefined) [flecainide] | -3.96% |
| CC1=C(C(=O)OC(C)C)C(c2cccc([N+](=O)[O-])c2)C(C(=O)OC2CN(C(c3ccccc3)c3ccccc3)C2)=C(N)N1 (centres undefined) [Azelnidipine] | 12.8% |
| FC(F)(F)c1cc(NC(=S)Nc2ccc(Br)cc2-c2nnn[nH]2)cc(C(F)(F)F)c1 | -37.2% |
| COC(=O)C1=C(C)NC(C)=C(C(=O)OCC(C)C)C1c1ccccc1[N+](=O)[O-] (centres undefined) [Nisoldipine] | -8.81% |
| COc1ccc(-c2nc3cc(C4=NNC(=O)CC4C)ccc3[nH]2)cc1 (centres undefined) [Pimobendan (Vetmedin)] | -0.97% |
| O=C(Nc1cccc(C(F)(F)F)c1)Nc1ccc(Br)cc1-c1nnn[nH]1 | -0.22% |
| Oc1c(Cl)cc(Cl)c2cccnc12 | -3.56% |

* * *

# relative growth recovery values compiled below
system: HEK293FT dCK*-IKZF1; assay: relative growth recovery (pomalidomide 10 uM = 100%, DMSO = 0%); higher = more growth rescue (IKZF1 fusion degradation); conditions: compound concentration: 5 uM; AraC concentration: 0.3 uM; overnight pretreatment + 4 days AraC

| MOLECULE | relative growth recovery (%) |
| --- | --- |
| CCCSc1ccc2[nH]c(NC(=O)OC)nc2c1 [Albendazole] | -0.675 |
| C=CC(=O)Nc1cccc(Oc2nc(Nc3ccc(N4CCN(C)CC4)cc3)ncc2Cl)c1 | -9.69 |
| O=C(O)c1ccccc1Nc1ccc(CCc2ccc(Cl)c(Cl)c2)cc1 | 0.125 |
| CN(C)CC/C=C1/c2ccccc2Sc2ccc(Cl)cc21 | -0.74 |
| CC(C)(C)c1ccc(/C=C/C(=O)Nc2ccc3c(c2)OCCO3)cc1 | 0.45 |
| CNCC(O)c1ccc(O)c(O)c1 (racemic) | -4.26 |
| C[n+]1c2cc(N)ccc2cc2ccc(N)cc21 | -15 |
| Oc1c(Cl)cc(Cl)c(Cl)c1Cc1c(O)c(Cl)cc(Cl)c1Cl [Hexachlorophene] | -1.27 |
| CC1(C)Oc2ccc(C#N)cc2[C@H](N(Cc2ncc[nH]2)c2ccc(Cl)cc2)[C@H]1O | 1.01 |
| O=C(Nc1ccc(F)cc1)N1CCc2ccccc2C1c1ccc(C(F)(F)F)cc1 (centres undefined) | -0.27 |
| COc1cc([C@@H]2c3cc4c(cc3[C@@H](O[C@@H]3O[C@@H]5CO[C@@H](C)O[C@H]5[C@H](O)[C@H]3O)[C@H]3COC(=O)[C@H]23)OCO4)cc(OC)c1OP(=O)(O)O [Etoposide phosphate] | -13 |
| CCCCc1ccc2[nH]c(NC(=O)OC)nc2c1 | -11.7 |
| CC/C(=C(\c1ccc(O)cc1)c1ccc(OCCN(C)C(=O)COCCOCCOCCOc2cccc(C(=O)c3csc([C@@H]4CCCN4C(=O)[C@@H](NC(=O)[C@H](C)NC)C4CCCCC4)n3)c2)cc1)c1ccccc1 | -11.5 |
| COC(=O)Nc1nc2ccc(Sc3ccccc3)cc2[nH]1 | -9.72 |
| Cc1cc(C2CCCCC2)n(O)c(=O)c1 [Ciclopirox] | -11.9 |
| O=C1c2ccccc2C(Cc2ccncc2)(Cc2ccncc2)c2ccccc21 | 5.88 |
| CCCSc1ccc2[nH]c(NC(=O)OC)nc2c1 | -11.2 |
| COc1cc(NC(=O)c2ccc(-c3ccc(Cl)cc3)o2)cc(OC)c1 | 7.22 |
| CC(C)COCC(CN(Cc1ccccc1)c1ccccc1)N1CCCC1 (centres undefined) | -1.14 |

* * *

biological target: IKZF1 (dCK*-IKZF1 fusion in HEK293FT) (UniProt Q13422); assay: inhibition of IKZF1 HTRF signal (DMSO = 0%, pomalidomide 10 uM = 100%); higher = lower IKZF1 protein level; conditions: compound concentration: 5 uM, overnight (~20 h)
Sequence (Q13422 whole entry, looked up, the tested form may be a part): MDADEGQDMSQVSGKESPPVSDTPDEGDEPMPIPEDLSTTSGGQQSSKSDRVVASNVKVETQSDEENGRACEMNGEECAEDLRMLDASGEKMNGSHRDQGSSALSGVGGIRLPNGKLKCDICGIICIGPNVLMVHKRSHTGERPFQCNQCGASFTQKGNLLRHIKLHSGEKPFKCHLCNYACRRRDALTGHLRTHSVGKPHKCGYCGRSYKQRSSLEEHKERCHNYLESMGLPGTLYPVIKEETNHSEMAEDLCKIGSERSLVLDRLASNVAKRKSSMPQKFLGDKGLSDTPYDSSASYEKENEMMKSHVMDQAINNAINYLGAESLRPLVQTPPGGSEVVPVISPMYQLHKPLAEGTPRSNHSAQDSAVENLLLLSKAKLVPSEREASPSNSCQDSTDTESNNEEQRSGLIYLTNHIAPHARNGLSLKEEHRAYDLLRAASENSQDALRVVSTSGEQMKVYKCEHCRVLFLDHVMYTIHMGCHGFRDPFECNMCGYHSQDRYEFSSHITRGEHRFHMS

| COMPOUND | TARGET DESC | UNIT SPEC | inhibition of IKZF1 HTRF signal |
| --- | --- | --- | --- |
| O=C(Nc1ccc(Cl)cc1)Nc1ccc(Cl)c(Cl)c1 [Triclocarban] | IKZF1 (dCK*-IKZF1 fusion in HEK293FT) (UniProt Q13422) | % | 15.1 |
| COC(=O)C1=C(C)NC(C)=C(C(=O)OC(C)(C)CN(C)CCC(c2ccccc2)c2ccccc2)C1c1cccc([N+](=O)[O-])c1 (stereo not drawn) [lercanidipine] | IKZF1 (dCK*-IKZF1 fusion in HEK293FT) (UniProt Q13422) | % | -5.35 |
| Cc1cc(Nc2ncc(Cl)c(Nc3ccccc3S(=O)(=O)C(C)C)n2)c(OC(C)C)cc1C1CCN(CC(=O)NCCNc2cccc3c2C(=O)N(C2CCC(=O)NC2=O)C3=O)CC1 (stereo not drawn) | IKZF1 (dCK*-IKZF1 fusion in HEK293FT) (UniProt Q13422) | % | 24.5 |
| OCCN1CCN(CCCN2c3ccccc3Sc3ccc(Cl)cc32)CC1 [Perphenazine] | IKZF1 (dCK*-IKZF1 fusion in HEK293FT) (UniProt Q13422) | % | 0.695 |
| O=C1OC2(c3ccc(O)cc3Oc3cc(O)ccc32)c2ccccc21 | IKZF1 (dCK*-IKZF1 fusion in HEK293FT) (UniProt Q13422) | % | 28.2 |
| Clc1ccccc1C(c1ccccc1)(c1ccccc1)n1ccnc1 | IKZF1 (dCK*-IKZF1 fusion in HEK293FT) (UniProt Q13422) | % | -36.9 |
| CN(C)CCOC1=Cc2ccccc2Sc2ccc(Cl)cc21 [zotepine] | IKZF1 (dCK*-IKZF1 fusion in HEK293FT) (UniProt Q13422) | % | -37.7 |
| CNC(=O)c1cccc(-c2ccc3c(N4CCOC[C@@H]4C)nc(N4CCOC[C@@H]4C)nc3n2)c1 [Vistusertib (AZD2014)] | IKZF1 (dCK*-IKZF1 fusion in HEK293FT) (UniProt Q13422) | % | 69.4 |
